Recorded below: AC50, system Histamine H1 receptor (Homo sapiens, UniProt P35367). Also: assay procedure not described here.
attributeMeasured: AC50

C[C@]12CCC(=O)C=C1[C@@H]1C[C@@H]1[C@H]1[C@@H]3[C@@H]4C[C@@H]4[C@@]4(CCC(=O)O4)[C@@]3(C)CC[C@@H]12 :: > 30 µM
CC1NCCOC1c1ccccc1 (configuration not stated) :: > 10 µM
CS(=O)(=O)NC(=O)CCC/C=C\C[C@H]1C(=O)C[C@@H](O)[C@@H]1/C=C/[C@@H](O)COc1ccccc1 :: > 30 µM
CC(=O)OCC1=C(C(=O)O)N2C(=O)[C@@H](NC(=O)CSc3ccncc3)[C@H]2SC1 :: > 10 µM
CN(C)CCN(Cc1ccccc1)c1ccccn1 :: 0.08 µM
CC1=C(/C=C/C(C)=C/C=C/C(C)=C/C(=O)Oc2c(C)c(C)c3c(c2C)CCC(C)(CCCC(C)CCCC(C)CCCC(C)C)O3)C(C)(C)CCC1 (configuration not stated) :: > 30 µM
O=C(O)[C@H]1/C(=C/CO)O[C@@H]2CC(=O)N21 :: > 30 µM

###

# assayedSystem: 5-hydroxytryptamine receptor 1A (Homo sapiens); also: assay procedure not described here
# Sequence (P08908 whole entry): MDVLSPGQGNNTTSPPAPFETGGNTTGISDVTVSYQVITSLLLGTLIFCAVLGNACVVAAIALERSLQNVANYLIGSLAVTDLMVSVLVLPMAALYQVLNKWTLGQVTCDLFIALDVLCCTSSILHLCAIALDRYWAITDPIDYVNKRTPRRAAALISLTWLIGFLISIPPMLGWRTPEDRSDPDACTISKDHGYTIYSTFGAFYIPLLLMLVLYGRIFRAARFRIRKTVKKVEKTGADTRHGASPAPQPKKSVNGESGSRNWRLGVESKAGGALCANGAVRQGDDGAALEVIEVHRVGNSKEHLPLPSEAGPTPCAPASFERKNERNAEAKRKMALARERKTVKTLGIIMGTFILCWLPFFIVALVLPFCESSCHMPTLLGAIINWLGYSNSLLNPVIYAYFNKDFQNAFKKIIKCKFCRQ
# Assay type: functional, cell-based
attributeMeasured: AC50

CCCCOC(=O)C(=O)Nc1cccc(-c2nnn[nH]2)c1 [TAZANOLAST] :: > 30 µM
OCCN(CCO)c1nc(N2CCCCC2)c2nc(N(CCO)CCO)nc(N3CCCCC3)c2n1 [DIPYRIDAMOLE] :: > 30 µM
Cc1nnc2n1-c1ccc(Cl)cc1C(c1ccccc1)=NC2 [ALPRAZOLAM] :: > 10 µM
CCOC(=O)Nc1ccc(NCc2ccc(F)cc2)nc1N [FLUPIRTINE] :: > 30 µM
CC(=O)[C@@]1(O)CC[C@H]2[C@@H]3C[C@H](C)C4=CC(=O)C=C[C@]4(C)[C@@]3(F)[C@@H](O)C[C@@]21C [FLUOROMETHOLONE] :: > 10 µM
CN(C)[C@@H]1C(O)=C(C(=O)NCN2CCCC2)C(=O)[C@@]2(O)C(O)=C3C(=O)c4c(O)cccc4[C@@](C)(O)[C@H]3C[C@@H]12 [ROLITETRACYCLINE] :: > 30 µM
COc1ccc(-c2cc(=S)ss2)cc1 [ANETHOLTRITHION] :: > 30 µM
CCC1(c2ccccc2)C(=O)NCNC1=O [PRIMIDONE] :: > 10 µM

###

Recorded below: AC50, system Mu-type opioid receptor (Homo sapiens). Also: assay procedure not described here.
attributeMeasured: AC50

OCCOCCN1CCN(C(c2ccccc2)c2ccc(Cl)cc2)CC1 (stereo not drawn) [HYDROXYZINE] :: > 30 µM
CC(=O)OCC1=C(C(=O)O)N2C(=O)[C@@H](NC(=O)CSc3ccncc3)[C@H]2SC1 :: > 30 µM
CCN(CC)C(C)C(=O)c1ccccc1 (stereo not drawn) :: > 30 µM
Cc1nnc2n1-c1ccc(Cl)cc1C(c1ccccc1)=NC2 :: > 30 µM
CC(=O)SCC(Cc1ccccc1)C(=O)NCC(=O)OCc1ccccc1 (stereo not drawn) :: > 30 µM
CC1Cc2ccccc2N1NC(=O)c1ccc(Cl)c(S(N)(=O)=O)c1 (stereo not drawn) [INDAPAMIDE] :: > 30 µM
N=C(N)NC(=O)c1nc(Cl)c(N)nc1N [AMILORIDE] :: > 10 µM
Nc1nnc(-c2cccc(Cl)c2Cl)c(N)n1 :: > 30 µM
Cn1cnc2c(F)c(Nc3ccc(Br)cc3F)c(C(=O)NOCCO)cc21 :: > 30 µM
CCN(CCO)CCCC(C)Nc1ccnc2cc(Cl)ccc12 (stereo not drawn) [HYDROXYCHLOROQUINE] :: > 30 µM
CC(=O)[C@@]1(O)CC[C@H]2[C@@H]3C[C@H](C)C4=CC(=O)C=C[C@]4(C)[C@@]3(F)[C@@H](O)C[C@@]21C :: > 30 µM
CCC(=O)c1ccc2c(c1)N(CC(C)N(C)C)c1ccccc1S2 (stereo not drawn) :: 14 µM
CCOC(=O)C1=C(C)NC(C)=C(C(=O)OC)C1c1cccc(Cl)c1Cl (stereo not drawn) :: > 10 µM
CCC(NC(C)C)C(O)c1ccc(O)c(O)c1 (stereo not drawn) :: > 30 µM
CCC1(c2ccccc2)C(=O)NCNC1=O :: > 30 µM
CCCCCCOC(=O)NC(=N)c1ccc(NCc2nc3cc(C(=O)N(CCC(=O)OCC)c4ccccn4)ccc3n2C)cc1 [DABIGATRAN ETEXILATE] :: > 30 µM
CC1NCCOC1c1ccccc1 (stereo not drawn) :: > 30 µM
Nc1ccc(S(=O)(=O)Nc2ncccn2)cc1 :: > 30 µM

These data points were gathered from ChEMBL document CHEMBL5291721.
